B1: Ankyrin repeat and SOCS box protein 14, residues 532 to 572; numbered along this chain, A6NK59 (parent)
chain: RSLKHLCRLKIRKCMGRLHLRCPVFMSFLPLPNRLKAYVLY

Variants of: B1
Assay: abundance fitness (aPCA) (normalised: wild type 0, dead -1); higher = more abundant; growth selection in yeast, the domain comes from the species named
Conditions: Homo sapiens
# abundance fitness listing for each entry below
Could you keep your reply to the number by itself?

H19K 0.141
C22Y -0.139
R34W 0.022
L9T 0.118
L18K -0.774

Input line: Give its abundance fitness value. Item: C7K
Output line: -0.596

Input line: Give its abundance fitness value. Item: L3M
Output line: -0.163
